# assayed.system: T1, recombinant integrin α4β7 (R&D Systems, 5397-A3-050) (UniProt P13612 34-970; P26010 20-723)
# T1 construct: coated on the ELISA plate at 1 µg/ml; also called a4b7; α4β7 integrin
# T1 sequence (P13612 34-970, chain 1 of 2): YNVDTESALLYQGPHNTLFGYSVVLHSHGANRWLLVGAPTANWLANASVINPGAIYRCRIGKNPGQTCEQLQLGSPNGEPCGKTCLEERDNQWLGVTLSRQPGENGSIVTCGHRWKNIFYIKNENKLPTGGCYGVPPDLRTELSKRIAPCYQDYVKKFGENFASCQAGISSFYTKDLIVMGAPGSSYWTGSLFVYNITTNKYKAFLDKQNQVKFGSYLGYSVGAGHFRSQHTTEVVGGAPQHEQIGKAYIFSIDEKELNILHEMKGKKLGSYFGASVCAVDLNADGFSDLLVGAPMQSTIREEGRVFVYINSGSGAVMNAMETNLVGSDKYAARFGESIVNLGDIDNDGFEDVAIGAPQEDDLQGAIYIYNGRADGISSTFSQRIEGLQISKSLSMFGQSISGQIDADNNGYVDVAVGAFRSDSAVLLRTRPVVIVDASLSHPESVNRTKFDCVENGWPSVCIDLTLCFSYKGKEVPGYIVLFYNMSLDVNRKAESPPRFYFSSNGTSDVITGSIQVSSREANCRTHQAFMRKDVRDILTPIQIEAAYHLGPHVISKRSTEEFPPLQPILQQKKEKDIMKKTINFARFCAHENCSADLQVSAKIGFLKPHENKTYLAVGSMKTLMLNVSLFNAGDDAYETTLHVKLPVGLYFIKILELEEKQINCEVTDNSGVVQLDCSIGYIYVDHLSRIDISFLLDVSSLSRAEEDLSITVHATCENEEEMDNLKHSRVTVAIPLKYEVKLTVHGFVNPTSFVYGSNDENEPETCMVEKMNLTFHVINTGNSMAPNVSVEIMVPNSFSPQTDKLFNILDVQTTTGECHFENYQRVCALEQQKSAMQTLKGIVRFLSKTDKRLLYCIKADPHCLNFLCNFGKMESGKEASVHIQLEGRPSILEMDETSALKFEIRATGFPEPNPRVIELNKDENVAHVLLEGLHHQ
# T1 sequence (P26010 20-723, chain 2 of 2): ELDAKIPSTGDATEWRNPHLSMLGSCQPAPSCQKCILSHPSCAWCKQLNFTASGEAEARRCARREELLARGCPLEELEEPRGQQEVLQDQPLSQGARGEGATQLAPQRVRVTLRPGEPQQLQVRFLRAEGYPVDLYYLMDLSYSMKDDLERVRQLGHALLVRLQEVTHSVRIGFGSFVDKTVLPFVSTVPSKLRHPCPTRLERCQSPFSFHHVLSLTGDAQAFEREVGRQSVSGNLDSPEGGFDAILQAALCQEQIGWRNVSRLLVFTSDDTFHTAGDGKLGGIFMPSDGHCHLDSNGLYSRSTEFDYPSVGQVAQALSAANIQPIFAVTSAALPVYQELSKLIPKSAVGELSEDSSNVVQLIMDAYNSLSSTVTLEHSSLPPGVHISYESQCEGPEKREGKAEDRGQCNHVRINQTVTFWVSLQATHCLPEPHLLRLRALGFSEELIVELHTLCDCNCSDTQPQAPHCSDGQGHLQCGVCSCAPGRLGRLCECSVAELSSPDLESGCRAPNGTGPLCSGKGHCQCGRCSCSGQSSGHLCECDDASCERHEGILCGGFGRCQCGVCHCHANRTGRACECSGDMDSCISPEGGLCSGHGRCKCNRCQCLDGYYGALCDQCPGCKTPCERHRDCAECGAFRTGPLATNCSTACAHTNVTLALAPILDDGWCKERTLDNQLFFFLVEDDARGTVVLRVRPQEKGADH
# method.notes: α4β7-MAdCAM-1 competition ELISA
*1 amine or outer side, *2 acyl side, *3 side chain or, on linkers, in order; H or OH if unused. Bridges are numbered along the chain shown (N, C = ends). [ ]: non-standard residue; d: D form. dPhe(3-aminomethyl) = 3-aminomethyl-D-phenylalanine, O=C([C@@H](Cc1cccc(CN[*:3])c1)N[*:1])[*:2]; Phe(4-CH2NH2) = NCc1ccc(C[C@H](N)C(=O)O)cc1; d(β3hK) = NCCCC[C@@H](N)CC(=O)O; dTic = O=C(O)[C@H]1Cc2ccccc2CN1; β3hK = NCCCC[C@H](N)CC(=O)O
# Lookup of reported IC50 keyed by entry
Write the answer as a number in nM, unit excluded.

In the examples that follow, each entry is paired with its recorded IC50.
binder: PF[d(β3hK)]LDI (bridge N-C; not fully specified (bridges); printed as Pro Phe X Leu Asp Ile, macrocycle of formula (I)) [Compound No. 220]
result.unit: nM
val: 96
//
binder: P[dPhe(3-aminomethyl)][dTic]LDT (bridge N-C; not fully specified (bridges); printed as Pro X1 X2 Leu Asp Thr; also: macrocycle closed by non-peptide linker -NH-CH(CH3)-CH(C(O)NH-tBu)- between P1 N and T6 C, macrocycle of formula (I)) [Compound No. 147]
result.unit: nM
val: 52
//
binder: PYXLDI (X^z dPip, macrocycle of formula (I)) [Compound No. 153]
result.unit: nM
val: 6
//
binder: PW[β3hK]LDT (bridge N-C; not fully specified (bridges); also: macrocycle closed by non-peptide linker -NH-CH(CH3)-CH(C(O)NH-tBu)- between N- and C-terminus, macrocycle of formula (I)) [Compound No. 211]
result.unit: nM
val: 60

Which IC50 value belongs to cyclo(P[Phe(4-CH2NH2)][β3hK]LDV) (also: macrocycle closed by non-peptide linker -NH-CH(CH3)-CH(C(O)NH-tBu)- between Pro1 N and C-terminal C, macrocycle of formula (I)) [Compound No. 254] ? 55
